# measurement target: UniProt Q86X55
# Sequence (Q86X55 whole entry): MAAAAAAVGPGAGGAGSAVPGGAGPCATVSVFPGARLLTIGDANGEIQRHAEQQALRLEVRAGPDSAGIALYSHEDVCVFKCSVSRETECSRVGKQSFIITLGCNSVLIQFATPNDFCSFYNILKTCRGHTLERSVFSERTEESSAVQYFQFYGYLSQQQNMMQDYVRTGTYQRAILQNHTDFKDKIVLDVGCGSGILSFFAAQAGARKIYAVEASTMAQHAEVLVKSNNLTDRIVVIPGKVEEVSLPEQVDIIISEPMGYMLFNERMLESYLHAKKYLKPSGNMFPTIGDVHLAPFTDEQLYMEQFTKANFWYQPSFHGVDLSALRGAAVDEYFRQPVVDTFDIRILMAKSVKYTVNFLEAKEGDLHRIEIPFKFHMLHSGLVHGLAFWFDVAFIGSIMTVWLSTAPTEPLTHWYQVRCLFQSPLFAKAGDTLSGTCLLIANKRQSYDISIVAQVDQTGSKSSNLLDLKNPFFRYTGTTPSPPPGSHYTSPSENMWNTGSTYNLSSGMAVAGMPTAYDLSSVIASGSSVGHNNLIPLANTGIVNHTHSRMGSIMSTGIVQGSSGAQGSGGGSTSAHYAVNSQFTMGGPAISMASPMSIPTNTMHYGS
# protocol summary: Displacement of [3H]-SAM from recombinant GST-tagged CARM1 (unknown origin) expressed in Escherichia coli BL21(DE3) incubated for 5 mins prior to H3.3 protein addition measured after 8 mins by P81 filter paper binding assay

input smiles | unit spec | IC50
CCCCN1/C(=C/C=C(Br)/C=C/C2=[N+](CCCC)c3ccc(Br)cc3C2(C)C)C(C)(C)c2cc(Br)ccc21 | µM | 21.5
CCCCN1/C(=C/C=C/c2sc3ccc(Br)cc3[n+]2CCCC)Sc2ccc(Br)cc21 | µM | 7.23
C(/C=C/c1sc2c3ccccc3ccc2[n+]1CCCc1ccccc1)=C1/Sc2c(ccc3ccccc23)N1CCCc1ccccc1 | µM | 5.8
